system: H1299 p53 R273H; experiment: Cell Proliferation Assay (CellTiter-Glo, CTG), H1299 p53 R273H (NClH1299-inducible p53 R273H); assay type: cell-based; settings: Homo sapiens, NCI-H1299, 120 h, CellTiter-Glo, H1299 p53 R273H, 5 days
pIC50: −log10 of the molar value.
Quick reference for pIC50 among some molecules

molecule="CNC(=O)c1ccc(NCC#Cc2cc3c(N[C@@H]4CCN(C)C[C@@H]4F)cccn3c2SC(F)(F)F)c(OC)c1 [Example 126]" reported_measurement="5.00 to 5.10"

## Task Any idea what its pIC50 is? The molecule is CNC(=O)c1ccc(OC)c(NCC#Cc2nc3c(N[C@@H]4CCN(C)C[C@@H]4F)cccn3c2SC(F)(F)F)n1 [Example 158]
## Result 5.10 to 5.30

## Task # pIC50 lookup, item COc1cc(S(C)(=O)=O)ccc1NCC#Cc1nc2c(NC3CCOCC3)cccn2c1CC(F)(F)F [Example 3]
## Result ≤ 5.00

## Task Which pIC50 reading was recorded for the molecule CNC(=O)c1ccc(NCC#Cc2nc3c(N[C@@H]4CCN(C)C[C@@H]4F)cccn3c2CC(F)(F)F)c(C(F)(F)F)c1 [Example 54] ?
## Result ≤ 5.00

## Task What does the record list as pIC50 for CNC(=O)c1ccc(NCC#Cc2nc3c(N[C@@H]4CCN(C)C[C@@H]4F)cccn3c2SC(F)(F)F)cc1 [Example 163] ?
## Result ≤ 5.00

## Task // returns reported pIC50 for input CCNC(=O)c1ccc(NCC#Cc2nc3c(N[C@@H]4CCN(C)C[C@@H]4F)cccn3c2CC(F)(F)F)c(OC)c1 [Example 47]
## Result ≤ 5.00

## Task Item under review: CNC(=O)c1ccc(NCC#Cc2nc3c(N[C@@H]4CCN(C)C[C@@H]4F)nccn3c2SC(F)(F)F)c(OC)c1 [Example 206] . Reported pIC50?
## Result ≤ 5.00

## Task Endpoint output: pIC50 of CNC(=O)c1ccc(NCC#Cc2cn3c(N[C@@H]4CCN(C)C[C@@H]4F)cccc3c2SC(F)(F)F)c(OC)c1 [Example 139] . Value?
## Result 5.10 to 5.30

## Task Record request: pIC50 value, item CNC(=O)c1ccc(NCC#Cc2nc3c(N[C@@H]4CCN(C)C(=O)C4)cccn3c2SC(F)(F)F)c(OC)c1 [Example 169]
## Result ≤ 5.00

====

// reported IC50 per item
tested on: H1299 p53 Y220C; assay: Cell Proliferation Assay (CellTiter-Glo, CTG), H1299 p53 Y220C (NClH1299-inducible p53 Y220C); type: cell-based; conditions: Homo sapiens, NCI-H1299, 120 h, CellTiter-Glo, H1299 p53 Y220C, 5 days

Worked examples, 3 compounds total:
compound="CNC(=O)c1ccc(NCC#Cc2nc3c(N[C@@H]4CCN(C)CC4(F)F)cccn3c2CC(F)(F)F)c(OC)c1 (single isomer, unassigned)" readout_name=IC50 reported_measurement="> 3000 nM"
compound=CNC(=O)c1ccc(NCC#Cc2nc3c(N[C@@H]4CN(C)CC[C@@H]4F)cccn3c2SC(F)(F)F)c(OC)c1 readout_name=IC50 reported_measurement="< 750 nM"
compound=CNC(=O)c1ccc(NCC#Cc2cc3c(N[C@@H]4CCN(C)C[C@@H]4F)nccn3c2SC(F)F)c(OC)c1 readout_name=IC50 reported_measurement="< 750 nM"

## Task Request - read-out IC50 | tested on H1299 p53 Y220C | compound "C=CC(=O)Nc1cc(NC2CCN(C)CC2)c2nc(C#CCNc3ccc(C(=O)NC)cc3OC)c(CC(F)(F)F)n2c1"
## Result > 3000 nM

## Task Query for H1299 p53 Y220C: what IC50 does the record show for "COc1cc(P(C)(C)=O)ccc1NCC#Cc1cc2c(N[C@@H]3CCN(C)C[C@@H]3F)nccn2c1SC(F)(F)F" ?
## Result < 750 nM

## Task Requested read-out IC50, target or system H1299 p53 Y220C, entry "COc1ccc(S(C)(=O)=O)cc1NCC#Cc1nc2c(N[C@@H]3CCN(C)C[C@@H]3F)cccn2c1SC(F)(F)F"
## Result 1500 to 3000 nM
